Molecular target: PCSK9 (Homo sapiens (Human))
Experiment: PCSK9 Alexa FRET Standard assay (displacement of AlexaFluor647 tagged cyclic peptide Reagent A)
Assay type: binding
Conditions: PCSK9 Alexa FRET Standard assay, 0.5 nM PCSK9, 20 nM AF cyclic peptide Reagent A; read-out: IC50
Experimental: A solution containing 1 nM biotinylated PCSK9+2.5 nM Lance Streptavidin Europium (Strep-Eu) was made in 50 mM HEPES pH 7.4, 0.15 M NaCl, 5 mM CaCl2), 0.01% BSA, and 0.01% Surfactant P20. […] The reaction was incubated at room temperature for at least two hours prior to fluorescence measurements using an Envision Multilabel Reader. IC50 values were determined by fitting data to a sigmoidal dose-response curve using nonlinear regression. […]
Positions of bridges follow the written chain, without caps; N, C: chain ends. Non-standard residues stand in square brackets, D forms with d. Residues, ends and D or L forms follow the SMILES beside them. Phe(4-COOH) = N[C@@H](Cc1ccc(C(=O)O)cc1)C(=O)O; Trp(5-F) = N[C@@H](Cc1c[nH]c2ccc(F)cc12)C(=O)O; Trp(6-F) = N[C@@H](Cc1c[nH]c2cc(F)ccc12)C(=O)O; αMeP = C[C@@]1(C(=O)O)CCCN1; GABA = NCCCC(=O)O
observable: IC50

Please give the documented IC50 of COc1ccc(C[C@@H]2NC(=O)[C@H](Cc3cnc[nH]3)NC(=O)[C@H](CC(=O)O)NC(=O)[C@H](Cc3c[nH]c4ccc(F)cc34)NC(=O)[C@H](Cc3c[nH]c4ccc(F)cc34)NC(=O)[C@@H](C)NC(=O)CCCNC(=O)c3ccc(cc3)C[C@@H](C(N)=O)NC(=O)[C@]3(C)CCCN3C2=O)cc1 [Compound 432] ([GABA][dA][Trp(5-F)][Trp(5-F)]DHY(Me)[αMeP][Phe(4-COOH)]-NH2; lactam N-9)
1000 to 12100 nM

Please give the documented IC50 of COc1ccc(C[C@@H]2NC(=O)[C@@H]3CC/C=C\CO[C@H]4C[C@@H](C(=O)N3)N(C4)C(=O)[C@H](Cc3c[nH]c4ccc(F)cc34)NC(=O)[C@H](Cc3c[nH]c4ccc(F)cc34)NC(=O)[C@@H](C)NC(=O)[C@H](CCCCN)NC(=O)CCSCc3cccc(c3)CSC[C@@H](C(N)=O)NC(=O)[C@]3(C)CCCN3C2=O)cc1
0.11 to 100 nM

Consider the record given below.
Please give the documented IC50 of CC(=O)N[C@H]1CCCCNC(=O)c2ccc(cc2)C[C@@H](C(N)=O)NC(=O)[C@]2(C)CCCN2C(=O)[C@H](Cc2ccc(O)cc2)NC(=O)[C@H](Cc2cnc[nH]2)NC(=O)[C@H](CC(=O)O)NC(=O)[C@H](Cc2c[nH]c3cc(F)ccc23)NC(=O)[C@H](Cc2c[nH]c3ccc(F)cc23)NC(=O)CNC(=O)[C@H](C)NC1=O [Compound 312] (Ac-KAG[Trp(5-F)][Trp(6-F)]DHY[αMeP][Phe(4-COOH)]-NH2; lactam 1-10)
1000 to 12100 nM

---

Molecular target: human PCSK9 / human LDLR EGFa domain interaction (Homo sapiens (Human), UniProt Q8NBP7)
Sequence (Q8NBP7 31-152 partner, one chain of several): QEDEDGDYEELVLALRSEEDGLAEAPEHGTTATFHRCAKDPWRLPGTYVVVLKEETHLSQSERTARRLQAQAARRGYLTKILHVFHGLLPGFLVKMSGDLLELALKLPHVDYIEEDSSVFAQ
Assay: TR-FRET assay of inhibition of the PCSK9-LDLR protein-protein interaction
Assay type: binding
Settings: TR-FRET, 20 nM human PCSK9, 20 nM human LDLR EGFa domain, 2 hours room temperature; read-out: IC50
Starred links: 1 amine or outer side, 2 acyl side, 3 side chain; linkers in the order of their positions; H or OH if unused. Positions of bridges follow the written chain, without caps; N, C: chain ends. Non-standard residues stand in square brackets, D forms with d. Residues, ends and D or L forms follow the SMILES beside them. Trp(5-F) = N[C@@H](Cc1c[nH]c2ccc(F)cc12)C(=O)O; mXylylene(5-F) = Fc1cc(C[*:1])cc(C[*:2])c1; AEF = NCCOc1ccc(C[C@H](N)C(=O)O)cc1; αMeP = C[C@@]1(C(=O)O)CCCN1; Mpa = O=C(O)CCS
Attribute: IC50

Please give the documented IC50 of C[C@@]12CCCN1C(=O)[C@H](Cc1ccc(O)cc1)NC(=O)[C@H](Cc1cnc[nH]1)NC(=O)[C@H](CC(=O)O)NC(=O)[C@H](Cc1c[nH]c3ccc(F)cc13)NC(=O)[C@H](Cc1c[nH]c3ccc(F)cc13)NC(=O)CNC(=O)[C@H](CCCCN)NC(=O)CCSCc1cc(F)cc(c1)CSC[C@@H](C(N)=O)NC2=O [Compound 287] ([Mpa]KG[Trp(5-F)][Trp(5-F)]DHY[αMeP]C-NH2; linker 1-10 via mXylylene(5-F))
21 to 50 µM

Consider the record given below.
Please give the documented IC50 of CC(=O)N[C@H]1CCC(=O)NCCOc2ccc(cc2)C[C@@H](C(N)=O)NC(=O)[C@]2(C)CCCN2C(=O)[C@H](Cc2ccc(O)cc2)NC(=O)[C@H](Cc2c[nH]cn2)NC(=O)[C@H](CC(=O)O)NC(=O)[C@H](Cc2c[nH]c3ccc(F)cc23)NC(=O)[C@H](Cc2c[nH]c3ccc(F)cc23)NC(=O)CNC(=O)[C@H](C)NC1=O [Compound 311] (Ac-EAG[Trp(5-F)][Trp(5-F)]DHY[αMeP][AEF]-NH2; lactam 1-10)
0.1 to 1 µM

---

Biological target: PCSK9 (Homo sapiens (Human), UniProt Q8NBP7)
Sequence (Q8NBP7 153-692): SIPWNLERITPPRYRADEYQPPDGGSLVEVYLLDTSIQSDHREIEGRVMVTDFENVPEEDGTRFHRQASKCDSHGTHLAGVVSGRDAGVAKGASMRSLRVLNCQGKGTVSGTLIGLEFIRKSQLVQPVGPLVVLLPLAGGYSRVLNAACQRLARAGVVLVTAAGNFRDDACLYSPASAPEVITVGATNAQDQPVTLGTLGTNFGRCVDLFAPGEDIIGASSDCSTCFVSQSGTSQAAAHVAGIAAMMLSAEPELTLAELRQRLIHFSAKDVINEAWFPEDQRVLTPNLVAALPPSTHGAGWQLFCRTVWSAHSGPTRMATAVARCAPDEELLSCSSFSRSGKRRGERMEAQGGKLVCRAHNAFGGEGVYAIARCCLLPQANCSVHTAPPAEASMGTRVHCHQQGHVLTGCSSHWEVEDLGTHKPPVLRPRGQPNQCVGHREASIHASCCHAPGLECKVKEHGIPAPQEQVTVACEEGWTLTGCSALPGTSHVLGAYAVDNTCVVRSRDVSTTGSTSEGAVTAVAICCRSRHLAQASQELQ
Test: PCSK9 Alexa FRET Standard assay (displacement of AlexaFluor647 tagged cyclic peptide Reagent A)
Type: binding
Details: PCSK9 Alexa FRET Standard assay, 0.5 nM PCSK9, 20 nM AF cyclic peptide Reagent A; read-out: IC50
Starred links: 1 amine or outer side, 2 acyl side, 3 side chain; linkers in the order of their positions; H or OH if unused. Positions of bridges follow the written chain, without caps; N, C: chain ends. Non-standard residues stand in square brackets, D forms with d. Residues, ends and D or L forms follow the SMILES beside them. Phe(4-COOH) = N[C@@H](Cc1ccc(C(=O)O)cc1)C(=O)O; Trp(5-F) = N[C@@H](Cc1c[nH]c2ccc(F)cc12)C(=O)O; Phe(4-CH2NH2) = NCc1ccc(C[C@H](N)C(=O)O)cc1; Pro(cis-4-F) = O=C(O)[C@@H]1C[C@H](F)CN1; X4 = O=C(CCSCc1cccc(CSCCN[*:1])c1)[*:2]; Glutaryl = O=C(CCCC(=O)[*:2])[*:1]; X7 = O=C(Cc1ccc(CN[*:1])cc1)[*:2]; Aad = N[C@@H](CCCC(=O)O)C(=O)O; αMeP = C[C@@]1(C(=O)O)CCCN1
observable: IC50

Give IC50 for this entry on PCSK9 (Homo sapiens (Human), UniProt Q8NBP7): COc1ccc(C[C@@H]2NC(=O)[C@@H]([C@H](C)O)NC(=O)[C@@H]3C[C@H](F)CN3C(=O)[C@H](Cc3c[nH]c4ccc(F)cc34)NC(=O)[C@H](Cc3c[nH]c4ccc(F)cc34)NC(=O)[C@@H](C)NC(=O)Cc3ccc(cc3)CNC(=O)c3ccc(cc3)C[C@@H](C(N)=O)NC(=O)[C@]3(C)CCCN3C2=O)cc1 [Compound 080] ([X7][dA][Trp(5-F)][Trp(5-F)][Pro(cis-4-F)][dT]Y(Me)[αMeP][Phe(4-COOH)]-NH2; lactam N-9)
1 to 12.1 µM

Give IC50 for this entry on PCSK9 (Homo sapiens (Human), UniProt Q8NBP7): COc1ccc(C[C@@H]2NC(=O)[C@H](Cc3cnc[nH]3)NC(=O)[C@H](CC(=O)O)NC(=O)[C@H](Cc3c[nH]c4ccc(F)cc34)NC(=O)[C@H](Cc3c[nH]c4ccc(F)cc34)NC(=O)[C@@H](C)NC(=O)[C@H](CCCCN)NC(=O)[C@@H](NC(C)=O)CC(=O)NCc3ccc(cc3)C[C@@H](C(N)=O)NC(=O)[C@]3(C)CCCN3C2=O)cc1 [Compound 348] (Ac-DK[dA][Trp(5-F)][Trp(5-F)]DHY(Me)[αMeP][Phe(4-CH2NH2)]-NH2; lactam 1-10)
21 to 50 µM

Give IC50 for this entry on PCSK9 (Homo sapiens (Human), UniProt Q8NBP7): COc1ccc(C[C@@H]2NC(=O)[C@H](Cc3cnc[nH]3)NC(=O)[C@H](CC(=O)O)NC(=O)[C@H](Cc3c[nH]c4ccc(F)cc34)NC(=O)[C@H](Cc3c[nH]c4ccc(F)cc34)NC(=O)[C@@H](C)NC(=O)[C@H](CCCC(=O)O)NC(=O)CCSCc3cccc(c3)CSCCNC(=O)[C@]3(C)CCCN3C2=O)cc1 [Compound 427] (cyclo([Aad][dA][Trp(5-F)][Trp(5-F)]DHY(Me)[αMeP][X4]))
21 to 50 µM

Give IC50 for this entry on PCSK9 (Homo sapiens (Human), UniProt Q8NBP7): COc1ccc(C[C@@H]2NC(=O)[C@H]([C@@H](C)O)NC(=O)[C@@H]3C[C@H](F)CN3C(=O)[C@H](Cc3c[nH]c4ccc(F)cc34)NC(=O)[C@H](Cc3c[nH]c4ccc(F)cc34)NC(=O)[C@@H](C)NC(=O)[C@H](CCCCN)NC(=O)CCC/C=C\Cc3ccc(cc3)C[C@@H](C(N)=O)NC(=O)[C@]3(C)CCCN3C2=O)cc1 [Compound 132]
21 to 50 µM

***
Give IC50 for this entry on PCSK9 (Homo sapiens (Human), UniProt Q8NBP7): NC(=O)[C@@H]1Cc2ccc(cc2)CNC(=O)CCCC(=O)NCC(=O)N[C@@H](Cc2c[nH]c3ccc(F)cc23)C(=O)N[C@@H](Cc2c[nH]c3ccc(F)cc23)C(=O)N[C@@H](CC(=O)O)C(=O)N[C@@H](Cc2cnc[nH]2)C(=O)N[C@@H](Cc2ccc(O)cc2)C(=O)N1 [Compound 437] (G[Trp(5-F)][Trp(5-F)]DHY[Phe(4-CH2NH2)]-NH2; linker N-7 via Glutaryl)
0.00011 to 0.1 µM
